# SYSTEM UNDER TEST: Hexose transporter 1 (Plasmodium falciparum) (UniProt O97467)
# PROTOCOL NOTES: ST_JUDE_LEISH: Cytotoxicity at 2uM final concentration against transgenic Leishmania Mexicana promastigotes LmPfHT that are glucose transport deficient and complemented with the Plasmodium falciparum hexose transporter. Activity is measured by DNA content using SYBR green in vitro
# Assay type: functional
RESULT TYPE: inhibition (%)
Provide only the numeric value, understood in %.

Exercise: Look up inhibition for this compound: O=C(c1ccc(O)c(-c2cc(Cl)cc(Cl)c2)c1)N(CCO)CCO
Key: 1.98

Exercise: Look up inhibition for this compound: COc1ccc2nccc([C@@H](O)CN3CCC(NCc4nc5cc(F)c(F)cc5[nH]4)CC3)c2c1
Key: 2.26

Exercise: Look up inhibition for this compound: Cc1c(F)cc(C(=O)NC2CC2)cc1-c1ccc2c(cnn2S(=O)(=O)c2ccc(F)c(F)c2)c1
Key: 5.31

Exercise: Look up inhibition for this compound: COc1ccc2nccc([C@@H](O)CN3CCC(NCCOc4cc(F)cc(F)c4)CC3)c2c1
Key: 19.3

Exercise: Look up inhibition for this compound: FC(F)(F)c1ccc2[nH]c(-c3cccc(-c4cccc(CN5CCN(c6ccncc6)CC5)c4)c3)nc2c1
Key: 2.18

* * *

# SYSTEM UNDER TEST: Hexose transporter 1 (Plasmodium falciparum) (UniProt O97467)
# PROTOCOL NOTES: ST_JUDE_LEISH: Cytotoxicity at 2uM final concentration against transgenic Leishmania Mexicana promastigotes LmPfHT that are glucose transport deficient and complemented with the Plasmodium falciparum hexose transporter. Activity is measured by DNA content using SYBR green in vitro
# Assay type: functional
RESULT TYPE: inhibition (%)
Provide only the numeric value, understood in %.

Exercise: Look up inhibition for this compound: O=c1cc(NCCCNCc2cccc(OC(F)(F)F)c2)[nH]c2ccccc12
Key: -3.41

Exercise: Look up inhibition for this compound: Cc1cc2cc(-c3ccc(CN)cc3)ccc2nc1N
Key: 1.71

Exercise: Look up inhibition for this compound: CCCCCCn1c2c(c(=N)c3c1CCC3)CCC2
Key: 85.9

Exercise: Look up inhibition for this compound: CC(Cc1ccc(NC(=O)c2ccc(CC(C)NCc3ccc(Cl)c(Cl)c3)cc2)cc1)NCCc1cccc(Cl)c1 (stereo not drawn)
Key: -0.71

Exercise: Look up inhibition for this compound: CC1(C)N=C(N)N=C(N)N1c1ccc(Oc2ccccc2)cc1
Key: 1.71

Exercise: Look up inhibition for this compound: CN(C)Cc1c(O)ccc2oc(Cc3ccccc3)cc12
Key: -1.55

Exercise: Look up inhibition for this compound: COc1cccc(C2CCN(CCN3CCC(CNC(=O)c4ccc(-c5ccc(C(F)(F)F)cc5)cc4)CC3)CC2)c1
Key: 1.07

Exercise: Look up inhibition for this compound: CC(C)[C@H]1CC[C@H](C)C[C@@H]1OC(=O)N[C@@H](Cc1ccc(O)cc1)C(=O)NC1CCN(Cc2ccc(OCCCN(C)C)cc2)C1 (stereo partly drawn)
Key: 3.96

* * *

# SYSTEM UNDER TEST: Glucose transporter (Leishmania mexicana)
# PROTOCOL NOTES: ST_JUDE_LEISH: Cytotoxicity at 2uM final concentration against transgenic Leishmania Mexicana promastigotes LmGT2 that are glucose transport deficient and complemented with the L. Mexicana glucose transporter 2. Activity is measured by DNA content using SYBR green in vitro
# Type: functional
RESULT TYPE: inhibition (%)
Provide only the numeric value, understood in %.

Exercise: Look up inhibition for this compound: Fc1ccc2c(NN=CC=Cc3ccccc3)ccnc2c1
Key: 11.3

Exercise: Look up inhibition for this compound: CN1CCN(CC(=O)Nc2cccc(-c3ccc(-c4nc5cc(C(F)(F)F)ccc5[nH]4)cc3)c2)CC1
Key: 1.35

Exercise: Look up inhibition for this compound: COc1cc2c(=O)c(Cc3ccc(Cl)cc3)c(C)[nH]c2cc1F
Key: 0.73

Exercise: Look up inhibition for this compound: CCCC(=O)Nc1ccc(OCCCCN(CC(C)(C)C)c2ccc(C#N)c(C(F)(F)F)c2)cc1
Key: 0.8

Exercise: Look up inhibition for this compound: Cc1cc2ccc(-c3cccc(CN)c3)cc2nc1N
Key: 0.73

Exercise: Look up inhibition for this compound: Nc1ccc(-c2cc(Cl)cc(Cl)c2)cc1-c1cc2ccccc2[nH]1
Key: -0.38

Exercise: Look up inhibition for this compound: COc1cc(NC(=O)C(c2ccc(Cl)cc2)C(C)C)cc(OC)c1OC (configuration not stated)
Key: 5.89

Exercise: Look up inhibition for this compound: COc1ccc2nccc([C@@H](O)CN3CCC(NC(=O)Cn4nc(-c5ccc(C(F)(F)F)cc5)ccc4=O)CC3)c2c1
Key: 1.3

Exercise: Look up inhibition for this compound: CN1CCN(c2nsc3ccc(-c4ccc(NC(=O)Nc5ccccc5)cc4)cc23)CC1
Key: 0.99

Exercise: Look up inhibition for this compound: COc1ccc2nccc(N3CCC(SCCNS(=O)(=O)c4ccc5c(c4)OCCO5)C3)c2n1 (configuration not stated)
Key: -0.04

Exercise: Look up inhibition for this compound: CCOc1cc(C)ccc1C1CCN(CCCCNC(=O)c2ccc(-c3ccc(Cl)cn3)cc2)CC1
Key: -0.83

Exercise: Look up inhibition for this compound: CCCOc1cc(Cc2cnc(N)nc2N)cc(OC)c1OC
Key: -0.03

Exercise: Look up inhibition for this compound: Oc1ccc(CCNc2nc(NCc3ccccc3-c3cccc(Cl)c3)nc(N3CCNCC3)n2)cc1
Key: -2.27

Exercise: Look up inhibition for this compound: CCN1CCC(N(Cc2ccc(-c3ccc(C(F)(F)F)cc3)cc2)C(=O)CCCCn2c(CCc3cccc(F)c3F)nc(=O)c3ccccc32)CC1
Key: -0.6

Exercise: Look up inhibition for this compound: Cc1csc2nc(-c3ccccn3)nc(Nc3ccc4ncsc4c3)c12
Key: 0.95

Exercise: Look up inhibition for this compound: Clc1cc(Nc2ncnc3sc(C#Cc4ncc[nH]4)cc23)ccc1OCc1ccccn1
Key: -0.27

Exercise: Look up inhibition for this compound: Clc1ccc(CNCCCCCCNCc2ccc(Cl)cc2)cc1
Key: -1.04

Exercise: Look up inhibition for this compound: CN1CCC(N(Cc2ccc(-c3ccc(C(F)(F)F)cc3)cc2)C(=O)Cn2c(SCc3cccc(F)c3F)cc(=O)c3c2CCC3)CC1
Key: 1.56

Exercise: Look up inhibition for this compound: CNC(=O)c1nc(-c2ccccc2)[nH]c1NC(C)=O
Key: 2.17

Exercise: Look up inhibition for this compound: COc1cc2ncnc(Nc3ccc(Br)c(Cl)c3)c2cc1OC
Key: 3.09

Exercise: Look up inhibition for this compound: Cc1ccc(OCCCCONC(=O)c2ccccc2)cc1
Key: -0.14

Exercise: Look up inhibition for this compound: CC(C)c1ccc(NC(=O)c2ccc(C(=O)NC3CCN(CC4CCCCC4)C3)cc2)cc1 (configuration not stated)
Key: 3.15
